The reported measurements were obtained from PubChem BioAssay (NCI).

growth values, listed per item
Tested on: MOLT-4 leukemia
Assay: NCI-60 one-dose screen, 48 h (100 = growth as untreated, 0 = no growth, -100 = all killed)
Conditions: 10 µM unless noted
This is part of a sample that, as a whole, favours compounds with a hit. Of some 83,000 tested, about 20% had one in any assay.
Only the number, expressed in %, is required.

| Molecule | growth [%] |
| --- | --- |
| CC(=O)NCC(=O)c1ccc([N+](=O)[O-])cc1 | 98.4 |
| Fc1ccc([I+]c2ccc(F)cc2)cc1 | 54.8 |
| CCCCCCCCCCCCCCCc1ccc(N)c(OC2OC(CO)C(O)C(O)C2O)c1 (stereo not drawn) | 60.8 |
| CCCCNc1ccc(Nc2ccccc2)cc1 | 84.6 |
| Cn1cnc([N+](=O)[O-])c1Sc1ncn[nH]1 | 121 |

So what does the record say about growth for ClCCOCCOc1ccc(C2CCCCC2)cc1 ?
120

Any idea what growth was measured for COc1cc(C(O)C2C(=O)OCC2C2(c3ccc4c(c3)OCO4)SCCCS2)cc(OC)c1OC (stereo not drawn) ?
94

Data request, read-out growth, for CCOC(=O)c1c(C)cc(=O)oc1C
101

What does the record list as growth for COc1ccc(C(=O)CC(c2ccccc2)C(C#N)c2ccccc2)cc1 (stereo not drawn) ?
76.4
